target-desc: MMP-13 (Homo sapiens, UniProt P45452)
Construct: made in house; host or cells: baculovirus / insect cells
protocol-details: biochemical
reported-conditions: recombinant human MMP-13, MCA peptide substrate 4 μM, pH 7.5, room temperature; read-out: MMP-13 IC50
Reported IC50 is given for each of the following compounds.
Respond numerically; units are nM and should not be typed.

Recorded IC50 for COc1ccc(CCCOC2CCN(c3ccc(S(=O)(=O)C4(C(=O)NO)CCOCC4)cc3)CC2)cc1OC [Example 811] with MMP-13 (Homo sapiens, UniProt P45452), please?
14.8

Recorded IC50 for O=C(NO)C1(S(=O)(=O)c2ccc(N3CCC(Cc4ccccc4)CC3)cc2)CCOCC1 [Example 720] with MMP-13 (Homo sapiens, UniProt P45452), please?
4.5

Recorded IC50 for CCNCc1ccc(COC2CCN(c3ccc(S(=O)(=O)C4(C(=O)NO)CCOCC4)cc3)CC2)cc1 [Example 476] with MMP-13 (Homo sapiens, UniProt P45452), please?
25.4

Recorded IC50 for O=C(Nc1ccncc1)C1CCN(c2ccc(S(=O)(=O)C3(C(=O)NO)CCOCC3)cc2)CC1 [Example 62] with MMP-13 (Homo sapiens, UniProt P45452), please?
14
